Test system: KM-20L2
Assay: NCI tumour cell line growth inhibition, 48 h
The source made the active and inactive calls. Cut-off read from the data, not from the text of the source: active = GI50 up to about 1.1 µM and inactive = higher.
Labels: 1.0 for active, 0.0 for inactive

molecule	classAssignment
CCOC(=O)C(C)Sc1nnc(COc2ccc(Cl)cc2)n1-c1ccccc1 (stereo not given)	0.0
CC[n+]1c(/C=C/c2ccc(N(CCCl)CCCl)cc2)ccc2cc(NC(=O)/C=C/c3ccccc3)ccc21	1.0
N/C(S)=N/N=C/c1ncccc1O	0.0
Nc1c(-c2cn(Cc3ccccc3)c3ccccc23)[n+]([O-])c2ccccc2[n+]1[O-]	0.0
CS(=O)(=O)OCCCOS(C)(=O)=O	0.0
CC12CC(=O)OC(Cc3ccccc31)O2 (stereo not given)	0.0
C(/COc1cccnc1)=N\NC1=NCCN1	0.0
Clc1ccc(Cc2nc3ccccc3s2)c(Cl)c1	0.0
O=C(CC(=O)Nc1ccccc1O)Nc1ccccc1O	0.0
Nc1nc(S)nc(C(=O)Nc2ccc(Cl)c(Cl)c2)c1-c1ccc(Cl)cc1	0.0
CCN1/C(=C/C(C)=C/c2sc3ccccc3[n+]2CC)Sc2ccccc21	1.0
CC#Cc1c(O)c2c(c(O)c1C#CC)C(=O)c1ccccc1C2=O	0.0
COC(=O)C(C(=O)C(=O)Nc1ccc([N+](=O)[O-])cc1)c1nc2cc(C)c(C)cc2nc1O (stereo not given)	0.0
COc1ccc2c(c1)OC[C@@H]1c3cc4c(cc3O[C@H]21)OCO4	0.0
O=[N+]([O-])c1ccccc1C1N2CCCCC2[C@@H]2c3[nH]c4ccccc4c3CCN12 (stereo not given in full)	0.0
Cc1ccc(S(=O)(=O)N/N=C/C(C)C)cc1	0.0
COc1ccc(-c2cc(C(=O)Nc3cc(C(F)(F)F)cc(C(F)(F)F)c3)c3ccccc3n2)cc1	0.0
O=C(NN1C(=O)CSC1c1ccc(C(F)(F)F)cc1)c1ccncc1 (stereo not given)	0.0
COC(=O)C1=C(C)C(=O)C2(CCCCCC2C(=O)OC)C1 (stereo not given)	0.0
CNc1ccc([N+](=O)[O-])c2c(NCCCN(C)C)ccnc12	0.0
O=C1NN=CN2C(=O)CCC12 (stereo not given)	0.0
CCc1cccc(C(C)C)c1NC(=O)/C(=N\NC(N)=O)C(C(=O)OC)c1cnc2ccccc2n1 (stereo not given)	0.0
C=CC(=O)c1ccc2c(c1)OCCOCCOCCOCCOCCO2	0.0
CN(C)CCNc1ccc2ncn3c4ccc(O)cc4c(=O)c1c23	0.0
CCCCOCN/C(N)=N/C#N	0.0

* * *

Tested on: NCI/ADR-RES
Test: NCI tumour cell line growth inhibition, 48 h
Active and inactive are the calls of the source. No stated cut-off is given here; in the data, active = GI50 up to about 1.1 µM and inactive = higher.
Labels: active, inactive

compound	classAssignment
CCOC(=O)NC(Nc1ccc(C)cc1)(C(F)(F)F)C(F)(F)F	inactive
CCOC1CN(C)/C(=N\c2cccc3ccccc23)S1 (configuration not stated)	inactive
CC(=O)OC/C=C(\C)CCC(Br)C(C)(C)Br (configuration not stated)	inactive
CC[C@]1(Cc2ccc(OC)c(OC)c2)C=[N+]([O-])O[C@H](OC2CCCC2(c2ccccc2)c2ccccc2)[C@@H]1OC(=O)C(C)(C)C (some centres not stated)	inactive
CC(=O)CC(=O)Nn1c(-c2cccs2)nc2ccc(I)cc2c1=O	inactive
N=C(N)NC(=N)Nc1ccc(S(=O)(=O)O)cc1	inactive
O=C(/C=C/c1ccccc1)CSc1nc[nH]n1	inactive
COc1cccc(-c2nc(-c3cnccn3)n(C3OC(CO)C(O)C3O)n2)c1 (configuration not stated)	inactive
COc1cc(OC)cc(Oc2nc3cc(F)c(F)cc3nc2-c2ccccc2)c1	inactive
c1csc(-c2cc(-c3cccs3)c(-c3ccsc3)s2)c1	inactive
O[C@H]1[C@H](O)[C@@H](O)[C@H](O)[C@@H](O)[C@H]1O [INOSITOL]	inactive
Cc1ccc(-c2ccc3c(c2)Sc2ccccc2O3)n1C	active
COc1cccc(-c2nc(-c3cnccn3)n(C/C=C/c3ccccc3)n2)c1	inactive
COc1cccc(C2c3cc4c(cc3OC(N3CCCC3)C2C)OCO4)c1O (configuration not stated)	inactive
Cc1cccc2c(NCCCN(C)C)c3c([N+](=O)[O-])ccc(C)c3nc12	active
O=C(CN1CCN(C(=O)OCc2ccccc2)CCN(CC(=O)N2CCCCC2)CCN(C(=O)OCc2ccccc2)CC1)N1CCCCC1	inactive
CN(C)CCNc1ccccn1	inactive
CCN1C/C(=C\c2ccc(Cl)cc2)c2nc(N)c(C#N)c(-c3ccc(Cl)cc3)c2C1	inactive
CCN(CC)C(=S)N/N=C(/c1ccccc1)c1ccccn1	active
COc1cc(C2S/C(=C/c3ccccc3)C(=O)N2c2cc(Cl)c(Cl)cc2Cl)cc(OC)c1OC (configuration not stated)	inactive
NC(=O)c1cc2ccccc2o/c1=N/c1ccccc1	inactive
CC1=C(SCCO)C(=O)c2ccccc2C1=O	inactive
